# assay.details: qHTS assay for MDR1-selective chemotherapeutics: Primary screen using the drug-selected MDR subline cells KB-V1; note: nearly all actives have a fitted effect of over 60% in size
# recorded.conditions: KB-V1 MDR cells viability, CellTiter-Glo, 72 h; series mostly up to 46.1 µM
About 13,000 (3.2%) of roughly 400,000 compounds were called active. Inconclusive results (about 18%) are left out. Calls come from the whole dose curve; as a rule, active = well fitted cell-killing curve with a large enough effect; inconclusive = small, poorly fitted or top-dose-only effect, or effect the other way; inactive = flat fitted curve, though single readings scatter. The sample holds actives, similar compounds and a random draw of the others, so the mix is not that of the screen.
Return exactly one item of active, inactive

Solved entries:
| compound | assigned.category |
| --- | --- |
| CC1(C)Cc2cccc(OCC(=O)N3CCN(c4ccc([N+](=O)[O-])cc4)CC3)c2O1 | active |
| CCc1nc2nc(C)cc(Nc3ccc(F)c(Cl)c3)n2n1 | inactive |
| O=C1NC(=Nc2ccc(Cl)cc2)SC1Cc1cccc(Cl)c1Cl (stereo not given) | inactive |
| Cc1ccc(S(=O)(=O)N2CCN(C(=O)COC(=O)c3c(C)noc3C)CC2)c(C)c1 | inactive |

Query: Dear colleague, could you share the recorded outcome for CSc1nc(Nc2ccc(F)cc2)cc(-c2ccccc2)n1 when you have a moment?
Reply: inactive

Query: // outcome(item) with item = CSc1ncc(Sc2ccccc2)c(C(=O)O)n1
Reply: inactive

Query: Answer briefly: the call reported for CCC(=O)N1CCc2cc(Br)cc(S(=O)(=O)CCC(=O)NCCc3ccc(OC)c(OC)c3)c21 in this assay.
Reply: inactive

Query: # lookup: test call for CC(C)c1ccc(NC(=O)c2cc(S(=O)(=O)N3CCc4ccccc4C3)ccc2F)cc1
Reply: inactive

Query: Outcome? CCCNC(=O)c1ccccc1NC(=O)CSCc1ccc(OC)cc1
Reply: inactive

Query: Which outcome was assigned to OCCn1c(-c2ccccc2)csc1=Nc1ccccc1 in this test?
Reply: active

Query: Recorded test outcome, item CC1(C(=O)NS(=O)(=O)c2ccccc2)CCN1C(=O)c1ccccc1 (stereo not given)
Reply: inactive

###

# assay.details: qHTS assay for MDR1-selective chemotherapeutics: Primary screen using the drug-selected MDR subline cells KB-V1; note: nearly all actives have a fitted effect of over 60% in size; note: potency is the fitted concentration of half-maximal effect
# recorded.conditions: KB-V1 MDR cells viability, CellTiter-Glo, 72 h; series mostly up to 46.1 µM
Among all 400,000 compounds or so, about 13,000 (3.2%) were called active. Inconclusive results (about 18%) are left out. The entries come from a sample that favours actives as a whole.
measure: Potency

Recorded results for 4 compounds are shown here.
| smiles.input | Potency |
| --- | --- |
| COc1ccc(N=Cc2c(O)[nH]c3ccccc23)cc1OC | 6.51 µM (active) |
| CCc1ccccc1NC(=O)c1ccc2nc(CCc3ccccc3)oc2c1 | inactive |
| COc1cc2[nH]c(O)c(C=O)c2cc1OC | inactive |
| Cc1cccc2c1-c1sc(C(=O)Nc3ccc(F)cc3F)cc1CO2 | inactive |

Query: // lookup Potency for CN=c1scc(-c2cc(OC)ccc2OC)n1/N=C/c1c(C)[nH]c2ccccc12
Reply: inactive

Query: Please give the measured Potency for this compound: Cn1c(CCN2CCN(c3ccccn3)CC2)nc2cc(NS(=O)(=O)c3ccc(F)cc3)ccc21
Reply: inactive

###

# assay.details: qHTS assay for MDR1-selective chemotherapeutics: Primary screen using the drug-selected MDR subline cells KB-V1; note: nearly all actives have a fitted effect of over 60% in size; note: potency is the fitted concentration of half-maximal effect
# recorded.conditions: KB-V1 MDR cells viability, CellTiter-Glo, 72 h; series mostly up to 46.1 µM
In all, about 400,000 compounds went through this assay and about 13,000 (3.2%) were called active. Another 18% or so got no clear call; they are omitted. This is one part of a sample in which actives are shown more often than they occur.
measure: Potency

Worked examples follow.
| compound | Potency |
| --- | --- |
| CN(C)C(=O)COC(=O)c1cccc(S(=O)(=O)N2CC3(C)CC2CC(C)(C)C3)c1 (configuration not stated) | inactive |
| O=c1c(NCc2cccs2)nccn1-c1ccccc1 | inactive |
| O=S(=O)(c1cccs1)N1CCN(Cc2ccccc2)CC1 | 16.4 µM (active) |
| O=[N+]([O-])c1ccccc1OCCCCN1CCCCC1 | inactive |
| CCNS(=O)(=O)c1ccc(CCC(=O)N2CCN(c3ccc(OC)cc3)CC2)cc1 | inactive |
| CC1(C)CC2CC(C)(CN2c2ncnc3ccc(Br)cc23)C1 (configuration not stated) | 2.59 µM (active) |
| CCC1(C)CC(=O)c2c(ccc3oc(C(=O)Nc4ccc(C(C)=O)cc4)c(C)c23)O1 (configuration not stated) | inactive |
| CCOC(=O)C1(S(=O)(=O)c2ccccc2)CCN(Cc2ccccc2)CC1 | 16.4 µM (active) |

Query: Please report the recorded Potency for CCOc1ccccc1NC(=O)Cc1cccs1 .
Reply: inactive

Query: Given COC(=O)C[C@H]1C[C@@H]2c3cc(NC(=O)Nc4ccccc4)ccc3O[C@@H]2[C@@H](CO)O1 , state its recorded Potency.
Reply: inactive

Query: Query (compound): CCNS(=O)(=O)c1ccc(CCC(=O)N2CCN(c3cc(Cl)ccc3C)CC2)cc1 ; field requested: Potency
Reply: 14.6 µM (active)

Query: Endpoint output: Potency of COc1ccc2c(CN3CCN(S(=O)(=O)c4cccs4)CC3)cc(=O)oc2c1 . Value?
Reply: 13 µM (active)

Query: Entry O=C(NNS(=O)(=O)c1ccc(Cl)cc1)C1CCN(Cc2ccccc2)CC1 : reported Potency = ?
Reply: inactive

Query: Form field: reported Potency of COc1cccc(CN(C)C(=O)CC[C@H]2O[C@@H](n3cnc4c(NC(=O)c5ccccc5)ncnc43)[C@H](O)[C@@H]2O)c1
Reply: inactive

Query: # Potency lookup, item CCc1nc2ccc(C(=O)N3CCC(O)(Cc4ccccc4)CC3)cn2c1N(C)C(=O)Cc1ccccc1
Reply: inactive

Query: Potency lookup needed for CCOC(=O)C1(S(=O)(=O)c2ccc(Cl)cc2)CCN(Cc2ccccc2)CC1 , thanks.
Reply: 20.6 µM (active)

Query: What Potency value was documented for this compound, Cc1ccc(OCCCCN2CCCCC2)c(Br)c1 ?
Reply: 16.4 µM (active)

Query: Given the entry Cc1ccc(S(=O)(=O)c2cn(Cc3ccccc3)c3cc(N4CCCC4)c(F)cc3c2=O)c(C)c1 , report its measured Potency.
Reply: inactive

Query: Would you mind telling me what Potency value was observed for COc1ccc(Nc2ncnc3ccc(Br)cc23)c(OC)c1 ?
Reply: inactive

Query: Reported Potency, compound COc1ccccc1CNC(=O)c1cc(-c2cc(F)ccc2OC)n[nH]1 : ____
Reply: inactive

Query: Need Potency of Cc1ccc(C(C)(C)C)c(OCCCCN2CCCC2)c1 , thanks.
Reply: 20.6 µM (active)

Query: What does the data say about its Potency? Entry: CN1CCN(CCCCOc2cccc3ccccc23)CC1
Reply: inactive

###

# assay.details: qHTS assay for MDR1-selective chemotherapeutics: Primary screen using the drug-selected MDR subline cells KB-V1; note: nearly all actives have a fitted effect of over 60% in size
# recorded.conditions: KB-V1 MDR cells viability, CellTiter-Glo, 72 h; series mostly up to 46.1 µM
In all, about 400,000 compounds went through this assay and about 13,000 (3.2%) were called active. About 18% were inconclusive and are not listed. Calls come from the whole dose curve; as a rule, active = well fitted cell-killing curve with a large enough effect; inconclusive = small, poorly fitted or top-dose-only effect, or effect the other way; inactive = flat fitted curve, though single readings scatter. Many of the other results were omitted from the sample, so actives are more common in it than they were.
Tick one outcome: class 1 = active, class 0 = inactive

Consider the following illustrative entries.
| compound | assigned.category |
| --- | --- |
| CCC(C)CN1C(=O)CN(S(C)(=O)=O)CC1(C)C(=O)Nc1ccc2c(c1)OCCO2 (configuration not stated) | class 0 |
| CCCc1ccc(OCC(=O)NNC(=S)NC(=O)c2ccco2)cc1 | class 0 |
| COc1cc(C(=O)N2CCOC23CCN(Cc2ccccc2)CC3)cc(OC)c1OC | class 0 |
| CC(Oc1ccc2ccccc2c1)C(=O)NNC(=S)NC(=O)c1ccco1 (configuration not stated) | class 1 |
| CCN(C(=O)CSc1nnc(-c2ccncc2)o1)c1ccccc1 | class 0 |
| O=C(c1cccs1)C1C(c2ccc(Br)cc2)NC(=S)NC1(O)C(F)(F)F (configuration not stated) | class 1 |
| O=C(Cn1cnc2c(cnn2-c2ccccc2)c1=O)NCc1ccccc1 | class 1 |
| O=C(OCc1nc2ccccc2[nH]1)C1CCCCC1 | class 0 |
| c1ccc(-c2nnc(SCc3nc4ccccc4[nH]3)o2)cc1 | class 1 |
| CC1=C(C(=O)N2CCOCC2)CC(CC(=O)NCCCN(C)C)C(=O)N1Cc1ccc(C(C)(C)C)cc1 (configuration not stated) | class 0 |

Query: # lookup: test call for Cc1ccc(C(=O)NNC(=O)C(C)Oc2ccc3ccccc3c2)o1 (configuration not stated)
Reply: class 0

Query: Recorded call for Nc1cccc(CCc2nc3ccccc3[nH]2)c1 ?
Reply: class 0

Query: Each compound tested received a call. Report the one for CC(=O)Cn1cnc2c(cnn2-c2ccccc2)c1=O .
Reply: class 0

Query: GET /call?item= SCc1nc2ccc(Cl)cc2[nH]1 returns the recorded outcome of this test.
Reply: class 0

Query: In this assay, the call recorded for CCOC(=O)C1C(c2ccc(O)cc2)NC(=O)NC1(O)C(F)(F)F (configuration not stated) was what?
Reply: class 0

Query: Assay result, entry COc1cc(S(=O)(=O)N(Cc2cccs2)C2CC2)ccc1-n1cnnn1 — outcome?
Reply: class 1

Query: How was Clc1ccc(-c2nnc(SCc3nc4ccccc4s3)o2)cc1 classified in this test?
Reply: class 0
